Data origin: patent US10358435B2

pKi: −log10 of the molar value.
Measurement record for human PDE2A1 (Homo sapiens (Human), UniProt O00408); quantity recorded: pKi.
Endpoint label: pKi

> print(dat)
                                    compound  endpoint.label  quantitative.readout
 1  Cc1nc(-c2nnc(C(C)c3ccc(C(F)(F)F)cc3Cl)[nH]2)cc(=O)[nH]1 (single isomer, unassigned) [Example 66]             pKi                  6.28
 2  Cc1nc(-c2nnn3c2CCCCC3c2ccc(C(F)(F)F)cc2)cc(=O)[nH]1 (single isomer, unassigned) [Example 52]             pKi                  6.86
 3  Cc1nc(-c2cn(C(C)c3ccc(S(F)(F)(F)(F)F)cc3)nn2)cc(=O)[nH]1 (centres unmarked)             pKi                  7.42
 4  Cc1nc(-c2nnc3n2CCC[C@]3(C)c2ccc(C(F)(F)F)cc2F)cc(=O)[nH]1 (single isomer, unassigned) [Example 80]             pKi                  5.69
 5  Cc1nc(-c2nnn3c2CCC[C@]3(C)c2ccc(C(F)(F)F)cc2C)cc(=O)[nH]1 (single isomer, unassigned)             pKi                  6.09
 6  Cc1nc(-c2cnn(C(C)c3ccc(C(F)(F)F)cc3C)n2)cc(=O)[nH]1 (single isomer, unassigned) [Example 5]             pKi                  7.28
 7  Cc1nc(-c2cnn(C(C)c3ccc(C(F)(F)F)cc3F)n2)cc(=O)[nH]1 (single isomer, unassigned)             pKi                  5.99
 8  CC/C=C/c1nc(-c2cn(C(C)c3ccc(C(F)(F)F)cc3F)nn2)cc(=O)[nH]1 (centres unmarked)             pKi                  8.33
 9  Cc1nc(-c2nnn3c2CCC[C@@]3(C)c2ccc(C(F)(F)F)cc2)cc(=O)[nH]1 (single isomer, unassigned)             pKi                  6.63
10  Cc1nc(-c2nnc3n2CCC[C@]3(C)c2ccc(C(F)(F)F)cc2F)cc(=O)[nH]1 (single isomer, unassigned) [Example 81]             pKi                  9.03
11  Cc1nc(-n2cnc([C@H](C)c3ccc(C(F)(F)F)cc3F)n2)cc(=O)[nH]1 (single isomer, unassigned)             pKi                  6.65
12  Cc1nc(-c2nnn3c2CCCC3c2ccc(C(F)(F)F)cc2F)cc(=O)[nH]1 (single isomer, unassigned)             pKi                  7.68
13  Cc1nc(-c2nnn3c2COCC3c2ccc(C(F)(F)F)cc2)cc(=O)[nH]1 (centres unmarked)             pKi                  7.14
14  Cc1nc(-c2cn([C@@H](C)c3ccc(C(F)(F)F)cc3Cl)nn2)cc(=O)[nH]1 (single isomer, unassigned)             pKi                  7.38

----------
As a worked illustration, we turn to Ki data collected for human PDE2A1 (Homo sapiens (Human)).
Endpoint label: Ki (nM)

> print(dat)
                                   compound  endpoint.label  units.label  quantitative.readout
1  CCc1ccc([C@]2(C)CCCc3c(-c4cc(=O)[nH]c(C)n4)nnn32)c(F)c1 (single isomer, unassigned) [Example 95]              Ki           nM                   1.8
2  Cc1nc(-c2nnn3c2CCCC3(C)c2ccc(C(F)(F)F)cc2F)cc(=O)[nH]1 (single isomer, unassigned) [Example 59]              Ki           nM                   178
3  Cc1nc(-n2cc([C@H](C)c3ccc(C(F)(F)F)cc3Cl)nn2)cc(=O)[nH]1 (single isomer, unassigned) [Example 75]              Ki           nM                   8.9
4  Cc1nc(-c2cn(C(C)c3cc(F)c(C(F)(F)F)cc3F)nn2)cc(=O)[nH]1 (single isomer, unassigned) [Example 23]              Ki           nM                   203
5  Cc1nc(-c2cn(C(C)c3ccc(C(F)(F)F)cc3)nn2)cc(=O)[nH]1 (single isomer, unassigned) [Example 18]              Ki           nM                    47
6  Cc1nc(-c2cn(C3(c4ccc(C(F)(F)F)cc4Cl)CCC3)nn2)cc(=O)[nH]1 [Example 29]              Ki           nM                  0.53
7  COc1cccc(Cc2nc(-c3nnn4c3CCCC4(C)c3ccc(C(F)(F)F)cc3F)cc(=O)[nH]2)c1 (single isomer, unassigned) [Example 91]              Ki           nM                  0.56

----------
- Target under test: human PDE2A1 (Homo sapiens (Human), UniProt O00408)
- Sequence (O00408 other isoform, or with tags, fused parts or gaps): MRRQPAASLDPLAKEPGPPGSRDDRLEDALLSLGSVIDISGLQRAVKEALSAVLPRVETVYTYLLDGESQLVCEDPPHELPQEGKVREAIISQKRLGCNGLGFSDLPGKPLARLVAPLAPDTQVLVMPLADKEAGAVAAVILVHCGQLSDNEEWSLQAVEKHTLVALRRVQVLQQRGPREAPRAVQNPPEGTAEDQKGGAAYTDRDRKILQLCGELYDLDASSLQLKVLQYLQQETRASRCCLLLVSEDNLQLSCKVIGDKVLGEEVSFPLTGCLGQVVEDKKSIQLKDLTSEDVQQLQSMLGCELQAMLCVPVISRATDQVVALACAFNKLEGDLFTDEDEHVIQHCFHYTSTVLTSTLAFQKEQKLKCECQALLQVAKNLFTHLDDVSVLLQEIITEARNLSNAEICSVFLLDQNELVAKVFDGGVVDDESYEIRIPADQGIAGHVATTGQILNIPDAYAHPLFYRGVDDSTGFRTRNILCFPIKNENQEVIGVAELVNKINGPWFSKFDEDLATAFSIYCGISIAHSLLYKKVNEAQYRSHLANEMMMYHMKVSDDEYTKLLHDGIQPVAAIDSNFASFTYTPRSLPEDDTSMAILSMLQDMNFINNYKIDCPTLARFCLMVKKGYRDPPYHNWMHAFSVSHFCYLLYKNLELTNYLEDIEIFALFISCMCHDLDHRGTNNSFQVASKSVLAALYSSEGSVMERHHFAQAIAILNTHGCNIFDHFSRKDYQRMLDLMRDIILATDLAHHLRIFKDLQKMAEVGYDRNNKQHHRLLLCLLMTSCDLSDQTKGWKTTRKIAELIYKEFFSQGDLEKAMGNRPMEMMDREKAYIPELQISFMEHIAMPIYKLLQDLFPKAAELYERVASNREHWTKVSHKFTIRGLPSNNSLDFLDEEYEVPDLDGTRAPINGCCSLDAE
- Run description: IMAP fluorescence polarization assay, human PDE2A1 (PDE selectivity panel)
- Format: biochemical
Each item that follows carries a reported inhibition at 3 µM.
Endpoint label: inhibition at 3 µM

> print(dat)
                                   compound  result
1  Cc1nc(-c2nnc3n2CCC[C@H]3c2ccc(C(F)(F)F)cc2)cc(=O)[nH]1 (mixture of isomers) [Example 71]     27%
2  Cc1nc(-c2nnc(C(C)c3ccc(C(F)(F)F)cc3Cl)n2C)cc(=O)[nH]1 (single isomer, unassigned) [Example 67]     17%
3  Cc1nc(-c2nnn3c2CCCC3c2ccc(C(F)(F)F)cc2F)cc(=O)[nH]1 (single isomer, unassigned) [Example 49]     33%
4  Cc1nc(-c2nnn([C@H](C)c3ccc(C(F)(F)F)cc3Cl)c2C)cc(=O)[nH]1 (mixture of isomers) [Example 44]     44%
5  Cc1nc(-c2nnc(C(C)c3ccc(C(F)(F)F)cc3F)n2C)cc(=O)[nH]1 (single isomer, unassigned) [Example 63]     16%
6  Cc1nc(-c2nnn3c2CCC[C@H]3c2ccc(C(F)(F)F)cc2)cc(=O)[nH]1 (mixture of isomers) [Example 47]     48%

----------
Target or system human PDE2A1 (Homo sapiens (Human), UniProt O00408); recorded quantity Ki.
Endpoint label: Ki (nM)

> print(dat)
                                   compound  units.label  quantitative.readout
1  Cc1nc(-c2cn(C(c3ccc(C(F)(F)F)cc3F)C3CC3)nn2)cc(=O)[nH]1 (single isomer, unassigned)           nM                    38
2  Cc1nc(-c2nnc(C(C)c3ccc(C(F)(F)F)cc3Cl)n2C)cc(=O)[nH]1 (single isomer, unassigned)           nM                   7.7
3  Cc1nc(-c2cn(C(C)c3ccc(OC(F)(F)F)cc3F)nn2)cc(=O)[nH]1 (stereo not shown)           nM                  76.8

----------
- Target under test: human PDE2A1 (Homo sapiens (Human), UniProt O00408)
pKi: −log10 of the molar value.
Classify by measured pKi: fulfilled if it is equal to or exceeds 8, not fulfilled if it is smaller.

> print(dat)
                                    compound    group.label
 1  Cc1nc(-c2nnn3c2CCCCC3(C)c2ccc(C(F)(F)F)cc2F)cc(=O)[nH]1 (single isomer, unassigned) [Example 93]  not fulfilled
 2  CC(c1ccc(C(F)(F)F)cc1F)n1cc(-c2cc(=O)[nH]c(CC3CC3)n2)nn1 (centres unmarked) [Example 14]  not fulfilled
 3  Cc1nc(-c2cn(C(C)(C)c3ccc(C(F)(F)F)cc3Cl)nn2)cc(=O)[nH]1 [Example 30]      fulfilled
 4  Cc1nc(-c2nnn3c2CCC[C@]3(C)c2ccc(C(F)(F)F)cc2Cl)cc(=O)[nH]1 (single isomer, unassigned) [Example 87]      fulfilled
 5  COc1ccc(Cc2nc(-c3nnn4c3CCC[C@]4(C)c3ccc(C(F)(F)F)cc3F)cc(=O)[nH]2)cc1 (single isomer, unassigned) [Example 89]      fulfilled
 6  Cc1nc(-n2ncc([C@H](C)c3ccc(C(F)(F)F)cc3Cl)n2)cc(=O)[nH]1 (single isomer, unassigned) [Example 82]  not fulfilled
 7  Cc1nc(-c2nnn3c2CCC[C@]3(C)c2ccc(OC(F)(F)F)cc2)cc(=O)[nH]1 (single isomer, unassigned) [Example 77]  not fulfilled
 8  Cc1nc(-c2cn(C(C)(C)c3ccc(C(F)(F)F)cc3C)nn2)cc(=O)[nH]1 [Example 31]      fulfilled
 9  Cc1nc(-c2cn(C(C)(C)c3ccc(C4CC4)cc3Cl)nn2)cc(=O)[nH]1 [Example 34]      fulfilled
10  Cc1nc(-c2nnn3c2CCC[C@]3(C)c2ccc(C(F)(F)F)cc2Cl)cc(=O)[nH]1 (single isomer, unassigned) [Example 88]  not fulfilled
11  CCc1ccc(C(C)n2cc(-c3cc(=O)[nH]c(C)n3)nn2)c(Cl)c1 (single isomer, unassigned) [Example 19]      fulfilled
12  Cc1nc(-c2nnn3c2CCCCC3c2ccc(C(F)(F)F)cc2)cc(=O)[nH]1 (single isomer, unassigned) [Example 51]  not fulfilled
13  CCc1ccc(C(C)(C)n2cc(-c3cc(=O)[nH]c(C)n3)nn2)c(Cl)c1 [Example 32]      fulfilled
